Target: Matrix metalloproteinase-9 (Homo sapiens)
Sequence (P14780 whole entry): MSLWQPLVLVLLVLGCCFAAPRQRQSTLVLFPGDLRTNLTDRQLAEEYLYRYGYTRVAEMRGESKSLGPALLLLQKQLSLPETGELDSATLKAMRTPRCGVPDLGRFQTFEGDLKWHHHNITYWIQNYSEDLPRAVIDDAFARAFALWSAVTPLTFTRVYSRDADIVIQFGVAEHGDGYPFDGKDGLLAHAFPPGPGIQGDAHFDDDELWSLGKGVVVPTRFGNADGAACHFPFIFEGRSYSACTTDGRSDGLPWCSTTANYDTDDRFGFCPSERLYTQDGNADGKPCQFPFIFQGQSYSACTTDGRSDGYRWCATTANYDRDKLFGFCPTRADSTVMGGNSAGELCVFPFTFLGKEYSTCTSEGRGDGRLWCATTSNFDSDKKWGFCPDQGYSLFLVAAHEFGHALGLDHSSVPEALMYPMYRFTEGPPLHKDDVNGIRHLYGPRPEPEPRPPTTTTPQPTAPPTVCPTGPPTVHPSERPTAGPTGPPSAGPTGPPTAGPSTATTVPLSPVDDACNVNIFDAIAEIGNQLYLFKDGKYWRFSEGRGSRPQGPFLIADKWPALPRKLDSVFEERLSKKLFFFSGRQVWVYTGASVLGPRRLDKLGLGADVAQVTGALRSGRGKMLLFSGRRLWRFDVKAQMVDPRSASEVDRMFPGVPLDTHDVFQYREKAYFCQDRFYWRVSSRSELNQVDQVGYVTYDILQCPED
Experiment: Inhibition of p-aminophenylmercuric acetate activated recombinant human MMP-9 expressed in CHO cells pretreated for 4 hrs followed by Mca-Lys-Pro-Leu-Gly-Leu-Dap(Dnp)-Ala-Arg-NH2 fluorogenic substrate addition measured every 15 secs for 20 mins by fluorimetric assay
Reported Endpoint: IC50 (nM)

[I] CC(C)[C@H](C(=O)NO)N(CCNC(=O)c1cccc(C(=O)NCCN([C@@H](C(=O)N(C)C)C(C)C)S(=O)(=O)c2ccc(-c3ccccc3)cc2)c1)S(=O)(=O)c1ccc(-c2ccccc2)cc1
[II] CC(C)[C@H](C(=O)O)N(CCNC(=O)c1ccccc1)S(=O)(=O)c1ccc(-c2ccccc2)cc1
[in] Pick the one with the larger IC50: I vs II Please respond with the label that marks your chosen entry.
[out] II
(II: 510 nM, I: 41 nM)
